Data origin: PubChem BioAssay (NCI)

Tested on: A498 renal
Test: NCI tumour cell line growth inhibition, 48 h
TGI overview
Please give a number only; it is taken to be in µM.

[
  {
    "smi": "CC(=O)c1ccc(Nc2nc3ccccc3c3occc23)cc1",
    "TGI (µM)": 12.3
  }
]

Identify TGI associated with the molecule CCOC(=O)Nc1cc2c(c(N)n1)N=C(c1ccccc1)CN2
22.2

Entry [O-][N+]1=C(c2ccccc2)/C(=C2/C(c3ccccc3)=[N+]([O-])c3ccccc32)Cc2ccccc21 needs its TGI filled in; supply it.
21.1

====

Tested on: NCI/ADR-RES ovarian
Assay: NCI tumour cell line growth inhibition, 48 h
Class 1 (yes): TGI at least 10 µM. Class 0 (no): TGI below 10 µM.

Field: example entries. Status: answers known.
[
  {
    "molecule": "COc1cc(C(=O)c2cnc(-c3ccc4cc[nH]c4c3)[nH]2)cc(OC)c1OC",
    "assignedCategory": "1 (yes)"
  },
  {
    "molecule": "C#Cc1cccc(Nc2ncnc3ccc(-c4cnc(N)nc4)cc23)c1",
    "assignedCategory": "1 (yes)"
  },
  {
    "molecule": "CN(CCCCCCCCNc1ccnc2ccccc12)Cc1ccc(-c2ccc(-c3ccc(C#N)cc3)s2)cc1",
    "assignedCategory": "0 (no)"
  },
  {
    "molecule": "O=C(Cn1c2ccc(Br)cc2c2nc3ccccc3nc21)N1CCOCC1",
    "assignedCategory": "1 (yes)"
  },
  {
    "molecule": "CC(=O)O[C@H]1C(=O)[C@@]2(C)[C@H]([C@H](OC(=O)c3ccccc3)[C@]3(O)C[C@H](OC(=O)[C@H](O)[C@@H](NC(=O)OC(C)(C)C)c4ccco4)C(C)=C1C3(C)C)[C@]1(OC(C)=O)CO[C@@H]1C[C@@H]2O",
    "assignedCategory": "0 (no)"
  },
  {
    "molecule": "CC[C@H](C)C(=O)O[C@H]1CCC=C2C=C[C@H](C)[C@H](CC[C@@H]3C[C@@H](O)CC(=O)O3)[C@H]21",
    "assignedCategory": "1 (yes)"
  },
  {
    "molecule": "C[C@@]12C[C@@H](c3ccccc3O1)N1CCCSC1=N2",
    "assignedCategory": "1 (yes)"
  },
  {
    "molecule": "Cc1ccc(/C=C2\\CCS(=O)(=O)c3ccccc3C2=O)cc1",
    "assignedCategory": "1 (yes)"
  },
  {
    "molecule": "Cl.[O-]c1cccc2cccnc12.[O-]c1cccc2cccnc12.[O-]c1cccc2cccnc12.[O-]c1cccc2cccnc12.[Ti+4]",
    "assignedCategory": "1 (yes)"
  },
  {
    "molecule": "CCOC(=O)c1c(Br)c(-c2ccc([N+](=O)[O-])cc2)c(Br)n1C",
    "assignedCategory": "1 (yes)"
  }
]

State whether the measured TGI reaches 10 µM, counting equality as reaching it, for CCOC(=O)Cc1ccc(Nc2nc3cc(F)c(F)cc3nc2C(=O)OCC)cc1
1 (yes)

Exam item: decide whether the reported TGI for O=C(O)CC(S)C(=O)O.[Li+].[Sb] (centres undefined) is at least 10 µM.
1 (yes)

Item Oc1ccccc1CNCc1ccccc1O with TGI of 10 µM or above?
1 (yes)

Is the recorded value of TGI equal to or greater than 10 µM for this molecule? CCN(CC)CCOc1ccc(NC(=O)C(C(C)C)N2C(=O)/C(=C/c3ccc(Br)cc3)SC2=S)cc1 (centres undefined)
1 (yes)

Is reported TGI greater than or equal to 10 µM here: O=[N+]([O-])c1cc(C(F)(F)F)cc2n[se]nc12
0 (no)

Reported TGI reaches at least 10 µM for CSc1c(S(C)=O)c2ccccc2n1C (centres undefined) ?
1 (yes)

Can O=C(/C=C/c1ccc(Cl)cc1)c1nc2ccccc2[nH]1 be said to have TGI at or above 10 µM?
1 (yes)

Decide: is the reported value of TGI for CC1=C(C(=O)NNC(=O)c2ccccc2O)CC(C(=O)NNC(=O)c2ccccc2O)=C(C)N1 equal to or greater than 10 µM?
1 (yes)

Record C[N+]1(C)C/C(=C\C=C\c2ccccc2)C(=O)/C(=C/C=C/c2ccccc2)C1 ; criterion: TGI no lower than 10 µM. Met?
1 (yes)
